Molecular target: DRB5*0101 (Homo sapiens, UniProt P01903+Q30154)
Assay: biochemical
Listing of recorded IC50 by entry.
Just the number in nM, nothing appended.

Look at this compound and give its reported IC50. "CC[C@H](C)[C@H](NC(=O)[C@@H]1CCCN1C(=O)[C@H](CO)NC(=O)CNC(=O)[C@H](CO)NC(=O)[C@@H](NC(=O)CNC(=O)[C@@H]1CCCN1C(=O)[C@H](CCCCN)NC(=O)[C@H](Cc1ccccc1)NC(=O)[C@H](CC(=O)O)NC(=O)[C@H](CC(C)C)NC(=O)[C@H](C)NC(=O)[C@@H](NC(=O)[C@H](C)N)[C@@H](C)CC)[C@@H](C)O)C(=O)O" 4350

Look at this compound and give its reported IC50. "CC[C@H](C)[C@H](NC(=O)[C@H](CC(=O)O)NC(=O)[C@@H](N)[C@@H](C)O)C(=O)N[C@@H](CO)C(=O)N[C@@H](CCC(=O)O)C(=O)N[C@@H](CCSC)C(=O)NCC(=O)N[C@@H](C)C(=O)N[C@@H](CC(N)=O)C(=O)N[C@@H](Cc1ccccc1)C(=O)N[C@@H](CCCCN)C(=O)N[C@@H](C)C(=O)N[C@@H](CC(=O)O)C(=O)N[C@@H](CCCNC(=N)N)C(=O)N[C@H](C(=O)O)C(C)C" 50

Look at this compound and give its reported IC50. "CC(C)C[C@H](NC(=O)[C@H](CC(=O)O)NC(=O)[C@H](Cc1ccccc1)NC(=O)[C@@H](N)Cc1ccccc1)C(=O)N1CCC[C@H]1C(=O)N[C@@H](CC(C)C)C(=O)N1CCC[C@H]1C(=O)N[C@@H](Cc1c[nH]c2ccccc12)C(=O)N[C@H](C(=O)N[C@@H](CO)C(=O)NCC(=O)N[C@@H](C)C(=O)N[C@H](C(=O)N[C@H](C(=O)N[C@@H](CCC(=O)O)C(=O)O)[C@@H](C)O)[C@@H](C)O)[C@@H](C)O" 16200

Look at this compound and give its reported IC50. "CC[C@H](C)[C@H](NC(=O)[C@@H](N)CCSC)C(=O)N[C@H](C(=O)N1CCC[C@H]1C(=O)N[C@@H](CCCCN)C(=O)N[C@@H](CO)C(=O)N[C@@H](CC(C)C)C(=O)N[C@@H](C)C(=O)NCC(=O)N1CCC[C@H]1C(=O)N[C@H](C(=O)N[C@@H](CO)C(=O)N[C@@H](CCC(N)=O)C(=O)N[C@@H](Cc1c[nH]cn1)C(=O)N[C@@H](CC(N)=O)C(=O)O)[C@@H](C)CC)[C@@H](C)CC" 3200

Look at this compound and give its reported IC50. "CC(C)C[C@H](NC(=O)[C@H](CCCNC(=N)N)NC(=O)[C@H](CCCCN)NC(=O)[C@@H]1CCCN1C(=O)[C@H](CO)NC(=O)[C@H](CC(=O)O)NC(=O)[C@H](C)NC(=O)[C@H](CCC(N)=O)NC(=O)[C@H](Cc1ccccc1)NC(=O)[C@H](CCCCN)NC(=O)[C@H](Cc1ccc(O)cc1)NC(=O)[C@H](CCC(N)=O)NC(=O)[C@H](CCC(=O)O)NC(=O)[C@@H](N)[C@@H](C)O)C(=O)N[C@@H](C)C(=O)O" 23

Look at this compound and give its reported IC50. "CC[C@H](C)[C@H](NC(=O)[C@H](C)NC(=O)CNC(=O)[C@@H](NC(=O)[C@H](CCC(=O)O)NC(=O)CNC(=O)[C@@H](NC(=O)[C@@H](NC(=O)[C@@H](NC(=O)[C@H](CCC(N)=O)NC(=O)[C@H](Cc1ccccc1)NC(=O)[C@@H](NC(=O)CNC(=O)[C@@H]1CCCN1)[C@@H](C)O)[C@@H](C)O)[C@@H](C)O)[C@@H](C)O)[C@@H](C)CC)C(=O)N[C@@H](C)C(=O)O" 2100

Look at this compound and give its reported IC50. "CC[C@H](C)[C@H](NC(=O)[C@H](C)NC(=O)[C@H](CC(N)=O)NC(=O)[C@H](C)N)C(=O)N[C@@H](Cc1ccccc1)C(=O)N[C@@H](CCCCN)C(=O)N[C@@H](CC(C)C)C(=O)N[C@H](C(=O)N[C@@H](Cc1ccc(O)cc1)C(=O)N[C@@H](CCC(N)=O)C(=O)N[C@@H](CC(N)=O)C(=O)N[C@@H](CCCCN)C(=O)N[C@H](C(=O)N[C@H](C(=O)N[C@@H](CCCCN)C(=O)N[C@H](C(=O)N[C@@H](CCC(N)=O)C(=O)O)C(C)C)C(C)C)C(C)C)[C@@H](C)O" 305

Look at this compound and give its reported IC50. "CC(C)C[C@H](NC(=O)[C@H](CCCCN)NC(=O)CNC(=O)[C@H](CO)NC(=O)[C@@H](NC(=O)[C@@H](NC(=O)[C@@H](NC(=O)[C@@H](NC(=O)[C@H](CCCNC(=N)N)NC(=O)[C@H](CC(C)C)NC(=O)[C@H](CO)NC(=O)[C@@H]1CCCN1C(=O)CNC(=O)[C@H](CCCNC(=N)N)NC(=O)[C@@H](N)[C@@H](C)O)[C@@H](C)O)[C@@H](C)O)[C@@H](C)O)C(C)C)C(=O)O" 2610

Look at this compound and give its reported IC50. "CC[C@H](C)[C@H](N)C(=O)N[C@@H](CC(=O)O)C(=O)N[C@@H](CC(=O)O)C(=O)N[C@@H](CCCNC(=N)N)C(=O)N[C@@H](Cc1ccccc1)C(=O)N[C@@H](C)C(=O)N[C@@H](CC(N)=O)C(=O)N[C@@H](C)C(=O)N[C@@H](CC(C)C)C(=O)N[C@@H](CC(C)C)C(=O)N[C@@H](C)C(=O)N[C@@H](CC(C)C)C(=O)N[C@@H](CC(N)=O)C(=O)N[C@@H](CC(=O)O)C(=O)N[C@@H](CCSC)C(=O)NCC(=O)N[C@@H](CCCCN)C(=O)O" 478

Look at this compound and give its reported IC50. "CSCC[C@H](NC(=O)[C@H](Cc1ccc(O)cc1)NC(=O)[C@H](CCCNC(=N)N)NC(=O)[C@H](CC(C)C)NC(=O)[C@@H]1CCCN1C(=O)[C@@H]1CCCN1C(=O)[C@H](CC(C)C)NC(=O)[C@@H](NC(=O)[C@H](CS)NC(=O)[C@H](CO)NC(=O)[C@H](CCCNC(=N)N)NC(=O)[C@@H](N)CS)[C@@H](C)O)C(=O)NCC(=O)N[C@@H](CCC(=O)O)C(=O)N[C@@H](CC(=O)O)C(=O)O" 2270
